- tested.on: T1, Fc protein
- T1 construct: Counter-screen for the Fc part of CTLA4-Fc
- protocol.notes: ELISA, Fc protein coated, 10 ng VHH/well
Assign labels as follows, please: TRUE for OD (against Fc) below 0.05 OD405; FALSE for OD (against Fc) equal to or exceeding 0.05 OD405.

INSERT INTO measurements (binder, assigned_category) VALUES
  ('CTLA4 heavy chain single domain antibody No. J39 (VHH, Camel VHH expressed in E. coli (PET32b), nickel-purified) VHH: QVQLQESGGGSVQAGGSLRLSCAPSRYSGALMGWFRQAPGKEREGVAVISRSGLTTYYADSVKGRFTISQDTAKNTIYLQMNSMKPEDTAMYYCVAAPEARAWSSRDPTGYNYWGQGTQVTVSS', 'TRUE'),
  ('CTLA4 heavy chain single domain antibody No. C22 (VHH, Camel VHH expressed in E. coli (PET32b), nickel-purified) VHH: QVQLQESGGGSVQAGGSLRLSCTVSQHTSRYYYMAWFRQAPGKEREGVASIWTGGGTPGYADSAKGRFTISTDNAKNTIYLQMNSLKPEDTAMYYCAADDRGGRWSLGTMAVGGYKYWGQGTQVTVSS', 'FALSE'),
  ('CTLA4 heavy chain single domain antibody No. J5 (VHH, Camel VHH expressed in E. coli (PET32b), nickel-purified) VHH: QVQLQESGGGSVQAGGSLRLSCAASGYTYSTYCMAWFRQVPEKERERVASIYTGGGTTYYADSVKGRFTISLDNAKNTLYLQMNSLKPEDTAMYYCAKSAARCDSSRDVNRLGYWGQGTQVTVSS', 'TRUE'),
  ('CTLA4 heavy chain single domain antibody No. J29 (VHH, Camel VHH expressed in E. coli (PET32b), nickel-purified) VHH: QVQLQESGGGLVQPGGSLRLSCAASGFTISSYTMTWLHQAPGKGLEWVSTINSGGSTAYADSVKGRFAISRDNAKNTLYLQLNSLKIEDTGMYYCQGGLTQRGQGTQVTVSS', 'TRUE'),
  ('CTLA4 heavy chain single domain antibody No. C2 (VHH, Camel VHH expressed in E. coli (PET32b), nickel-purified) VHH: QVQLQESGGGSVQPGGSLRLSCAVSGFTFSGYCMAWVRQAPGKGLEWVASIHRRDGSTDYADSVKGRFTISKDNSKNTLYLQMSSLKPEDTAVYYCAADPARLSCSGRVNSEYKYRGQGTQVTVSS', 'TRUE'),
  ('CTLA4 heavy chain single domain antibody No. J78 (VHH, Camel VHH expressed in E. coli (PET32b), nickel-purified) VHH: QVQLQESGGGSVQAGGSLRLSCTVSQHTSRYYYMAWFRQAPGKEREGVASIWTGGGTPGYADSAKGRFTISADNAKNTIYLQMNSLKPEDTAMYYCAADDRGGRWSLGTMAVGGYKYWGQGTQVTVSS', 'FALSE'),
  ('CTLA4 heavy chain single domain antibody No. C29 (VHH, Camel VHH expressed in E. coli (PET32b), nickel-purified) VHH: QVQLQESGGGSVQAGGSLRLSCAVSGYTYSGYCMGWFRQAPGKEREGVAAISRGDGSPGYADSVKGRFTISQDNAKNTLYLQMNSLKPEDTAMYYCAADVIPTETCSYGSWSGPNGYWGQGTQVTVSS', 'FALSE');

This collection of values is drawn from patent US20190315864A1.
